Source: the NIST ThermoML archive (doi:10.1021/je0601208)

Assay: refractive index (Na D-line) (dimensionless); xn = mol fraction of the nth substance listed
Conditions: 298.15 K; 100.5 kPa; Liquid; Standard Abbe refractometry; x1 = 0.9
Parameter Measured: refractive index

[
  {
    "Molecule": "CCCCCC(=O)OCC [ethyl hexanoate] + CCO",
    "Parameter Measured": "refractive index",
    "Endpoint Result": 1.40334
  },
  {
    "Molecule": "CCOC(=O)Cc1ccccc1 [ethyl phenylacetate] + CCO",
    "Parameter Measured": "refractive index",
    "Endpoint Result": 1.48996
  },
  {
    "Molecule": "CCCC(=O)OCCC(C)C [3-methylbutyl butanoate] + CCO",
    "Parameter Measured": "refractive index",
    "Endpoint Result": 1.40652
  },
  {
    "Molecule": "CCCCCCCC(=O)OCC [ethyl octanoate] + CCO",
    "Parameter Measured": "refractive index",
    "Endpoint Result": 1.41378
  },
  {
    "Molecule": "CC(=O)OCCC(C)C [3-methylbutyl ethanoate] + CCO",
    "Parameter Measured": "refractive index",
    "Endpoint Result": 1.3967
  },
  {
    "Molecule": "CCOC(=O)c1ccccc1 [ethyl benzoate] + CCO",
    "Parameter Measured": "refractive index",
    "Endpoint Result": 1.49731
  }
]
